Origin of the recorded values: patent US10590100B2

Test Target: zinc-independent Aβ42 aggregates (Homo sapiens)
Construct: 15 μM Aβ42 peptide in TrisHCl—NaCl buffer
Sequence (P05067 672-713 limits assumed): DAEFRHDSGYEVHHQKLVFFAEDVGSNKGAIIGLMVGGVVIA
Experiment: Bis-ANS fluorescence assay of disaggregation of zinc-independent Aβ42 aggregates
Measurement Setup: Aβ42 15 μM, bis-ANS 15 μM, Tris-buffered saline, without Zn2+
Reported Property: EC50 (µM)

Compound: N#CC(=Cc1ccc2cc(-c3ccc(N(c4ccccc4)c4ccccc4)cc3)oc2c1)C(=O)O [BC-149]
EC50 / µM: 0.5

P = N#CC(=Cc1ccc2cc(-c3ccc(N(c4ccccc4)c4ccccc4)cc3)oc2c1)C(=O)NCc1ccccn1 [BC-163]
Q = N#CC(=Cc1cc2ccc(N(c3ccccc3)c3ccccc3)cc2o1)C(=O)O [BC-146]
R = N#CC(=Cc1ccc2cc(-c3ccc(N(c4ccccc4)c4ccccc4)cc3)oc2c1)C(N)=O [BC-152]
S = N#CC(=Cc1ccc2oc(-c3ccc(N(c4ccccc4)c4ccccc4)cc3)cc2c1)C(=O)O [BC-151]
T = COC(=O)C(C#N)=Cc1ccc2cc(-c3ccc(N(c4ccccc4)c4ccccc4)cc3)oc2c1 [BC-161]
IN: Put the items in sequence by EC50, from largest down. State the ranking by listing the labels in the requested order.
OUT: Q, T, P, R, S
